Test system: PIP tumor and PC3 tumor
Test: Biodistribution of 125I labeled compounds 17, 18, 26 and 27 in tumor bearing nude mice
Type: in vivo
Conditions: 1 h
Collected Biodistribution: Blood values appear next to each entry.
Give the value in % ID/g but do not write % ID/g after it.

// solved cases for Biodistribution: Blood follow
O=C(O)CC[C@H](NC(=O)N[C@@H](CCCCNC(=O)[C@H](Cc1ccccc1)NC(=O)[C@H](CCC(=O)O)NC(=O)c1ccc([125I])cc1)C(=O)O)C(=O)O [[^125I]17]: 0.45
O=C(O)CC[C@H](NC(=O)N[C@@H](CCCCNC(=O)[C@H](Cc1ccccc1)NC(=O)[C@H](CCC(=O)O)NC(=O)[C@H](CCC(=O)O)NC(=O)c1ccc([125I])cc1)C(=O)O)C(=O)O [[^125I]18]: 0.71
O=C(O)CC[C@H](NC(=O)N[C@@H](CCCCNC(=O)[C@H](Cc1ccccc1)NC(=O)COc1ccc(C[C@H](NC(=O)[C@H](CCC(=O)O)NC(=O)[C@H](CCC(=O)O)NC(=O)c2ccc([125I])cc2)C(=O)O)cc1)C(=O)O)C(=O)O [[^125I]27]: 0.47

*Q* Specify measured Biodistribution: Blood for O=C(O)CC[C@H](NC(=O)N[C@@H](CCCCNC(=O)[C@H](Cc1ccccc1)NC(=O)COc1ccc(C[C@H](NC(=O)[C@H](CCC(=O)O)NC(=O)c2ccc([125I])cc2)C(=O)O)cc1)C(=O)O)C(=O)O [[^125I]26] .
*A* 0.46

====

Measured Biodistribution: large intestine* of individual entries
Test system: PIP tumor and PC3 tumor
Assay: Biodistribution of 125I labeled compounds 17, 18, 26 and 27 in tumor bearing nude mice
Format: in vivo
Details: 1 h, organ with content
All answers are understood in % ID/g, so give the number only.

// below: answered molecules
O=C(O)CC[C@H](NC(=O)N[C@@H](CCCCNC(=O)[C@H](Cc1ccccc1)NC(=O)[C@H](CCC(=O)O)NC(=O)[C@H](CCC(=O)O)NC(=O)c1ccc([125I])cc1)C(=O)O)C(=O)O [[^125I]18]: 1.12
O=C(O)CC[C@H](NC(=O)N[C@@H](CCCCNC(=O)[C@H](Cc1ccccc1)NC(=O)[C@H](CCC(=O)O)NC(=O)c1ccc([125I])cc1)C(=O)O)C(=O)O [[^125I]17]: 2.10
O=C(O)CC[C@H](NC(=O)N[C@@H](CCCCNC(=O)[C@H](Cc1ccccc1)NC(=O)COc1ccc(C[C@H](NC(=O)[C@H](CCC(=O)O)NC(=O)[C@H](CCC(=O)O)NC(=O)c2ccc([125I])cc2)C(=O)O)cc1)C(=O)O)C(=O)O [[^125I]27]: 1.13

Alright, here's another molecule for you.
*Q* Report measured Biodistribution: large intestine*; entry is O=C(O)CC[C@H](NC(=O)N[C@@H](CCCCNC(=O)[C@H](Cc1ccccc1)NC(=O)COc1ccc(C[C@H](NC(=O)[C@H](CCC(=O)O)NC(=O)c2ccc([125I])cc2)C(=O)O)cc1)C(=O)O)C(=O)O [[^125I]26]
*A* 1.24

====

Tested on: PIP tumor and PC3 tumor
Assay: Biodistribution of 125I labeled compounds 17, 18, 26 and 27 in tumor bearing nude mice
Assay type: in vivo
Details: 4 h, organ with content
Measured parameter: Biodistribution: large intestine*
Your reply should be a number followed by the unit it is expressed in.

O=C(O)CC[C@H](NC(=O)N[C@@H](CCCCNC(=O)[C@H](Cc1ccccc1)NC(=O)COc1ccc(C[C@H](NC(=O)[C@H](CCC(=O)O)NC(=O)c2ccc([125I])cc2)C(=O)O)cc1)C(=O)O)C(=O)O [[^125I]26]: 1.35 ± 0.47 % ID/g

*Q* Please supply the value of reported Biodistribution: large intestine* for the item O=C(O)CC[C@H](NC(=O)N[C@@H](CCCCNC(=O)[C@H](Cc1ccccc1)NC(=O)[C@H](CCC(=O)O)NC(=O)c1ccc([125I])cc1)C(=O)O)C(=O)O [[^125I]17]
*A* 0.86 ± 0.22 % ID/g

*Q* Tell us which Biodistribution: large intestine* value is on record for O=C(O)CC[C@H](NC(=O)N[C@@H](CCCCNC(=O)[C@H](Cc1ccccc1)NC(=O)COc1ccc(C[C@H](NC(=O)[C@H](CCC(=O)O)NC(=O)[C@H](CCC(=O)O)NC(=O)c2ccc([125I])cc2)C(=O)O)cc1)C(=O)O)C(=O)O [[^125I]27]
*A* 1.35 ± 0.48 % ID/g

*Q* Give the value of Biodistribution: large intestine* reported for the following: O=C(O)CC[C@H](NC(=O)N[C@@H](CCCCNC(=O)[C@H](Cc1ccccc1)NC(=O)[C@H](CCC(=O)O)NC(=O)[C@H](CCC(=O)O)NC(=O)c1ccc([125I])cc1)C(=O)O)C(=O)O [[^125I]18]
*A* 0.74 ± 0.25 % ID/g
